System name: T1, human apical domain of CD71 (human, UniProt P02786 189-383, limits assumed)
T1 construct: domain: apical domain
T1 sequence (P02786 189-383 limits assumed): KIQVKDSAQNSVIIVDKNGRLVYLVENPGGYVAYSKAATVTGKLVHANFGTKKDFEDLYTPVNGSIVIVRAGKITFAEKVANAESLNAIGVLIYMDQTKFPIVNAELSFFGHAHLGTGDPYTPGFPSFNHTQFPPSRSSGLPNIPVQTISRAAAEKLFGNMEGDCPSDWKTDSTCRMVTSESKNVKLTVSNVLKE
Test: primary ELISA; signal over HSA control
Reported metric: Apical domain:HSA (ratio)
Give the value, in units of ratio, as a plain number.

The recorded Apical domain:HSA for entry CD71-binding FN3 domain SEQ ID NO 394 (designed binder) MLPAPKNLVVSRVTEDSARLSWTAPDAAFDSFFIGYLEPQPPGEAIYLLVPGSERSYDLTGLKPGTEYNVTIQGVKGGFPSTPLEASFTT equals 430

Sure, the documented Apical domain:HSA for CD71-binding FN3 domain SEQ ID NO 425 (designed binder) MLPAPKNLVVSRVTEDSARLSWTAPDAAFDSFFIGYLEPQPPGEAIGLLVPGSERSYDLTGLKPGTEYNVTIQGVKGGFPSNPLSAIFTT is 347

The recorded Apical domain:HSA for CD71-binding FN3 domain SEQ ID NO 419 (designed binder) MLPAPKNLVVSRVTEDSARLSWTAPDAAFDSFFIGYLEPQPPGEAIALLVPGSERSYDLTGLKPGTEYNVTIQGVKGGFPSSPLNAYFTT is 269

Sample CD71-binding FN3 domain SEQ ID NO 410 (designed binder) MLPAPKNLVVSRVTEDSARLSWTAPDAAFDSFFIGYLEPQPPGEAIALWVPGSERSYDLTGLKPGTEYNVTIQGVKGGFPSQPLHAHFTT ; Apical domain:HSA observed: 379

The recorded Apical domain:HSA for entry CD71-binding FN3 domain SEQ ID NO 389 (designed binder) MLPAPKNLVVSRVTEDSARLSWTAPDAAFDSFFIGYLEPQPPGEAIHLLVPGSERSYDLTGLKPGTEYNVTIQGVKGGFPSMPLSAIVTT equals 129

In plain terms, CD71-binding FN3 domain SEQ ID NO 358 (designed binder) MLPAPKNLVVSRVTEDSARLSWTAPDAAFDSFEIGYWENAYKGEAIVLTVPGSERSYDLTGLKPGTEYVVFIGGVKGGVWSVPLSAIFTT has a documented Apical domain:HSA of 83

Reported Apical domain:HSA of CD71-binding FN3 domain SEQ ID NO 359 (designed binder) MLPAPKNLVVSRVTEDSARLSWTAPDAAFDSFLIPYAETSPSGEAIVLTVPGSERSYDLTGLKPGTEYSVLIHGVKGGDYSSPLSAIFTT : 233

For record CD71-binding FN3 domain SEQ ID NO 348 (designed binder) MLPAPKNLVVSRVTEDSARLSWTAPDAAFDSFEISYFENTWYGEAIVLTVPGSERSYDLTGLKPGTEYVVWIGGVKGGLWSKPLSAIFTT the listed Apical domain:HSA is 302

What the record says about CD71-binding FN3 domain SEQ ID NO 416 (designed binder) MLPAPKNLVVSRVTEDSARLSWTAPDAAFDSFFIGYLEPQPPGEAIALYVPGSERSYDLTGLKPGTEYNVTIQGVKGGFPSLPLVATFTT : Apical domain:HSA is 52
